assay.notes: in vitro
condition.info: human
Description: Selectivity index, ratio of IC50 for cytotoxicity against human HepG2 cells assessed as cell viability to IC50 for antiplasmodial activity against asexual erythrocytic stage of Plasmodium falciparum D6 assessed as inhibition of parasitic growth incubated
readout.kind: selectivity ratio
Answer using only a numeral; do not append any unit.

Quick one: selectivity ratio for `CCCCCCCCCCCc1ccc(/C=C2\N=C(c3ccc[nH]3)C=C2OCCC)[nH]1.Cl` ? 2810

Entry `CC(C)CN/C=C1\N=C(c2ccc[nH]2)C=C1OCc1ccc(Cl)cc1` please 78

Entry `CCCCCCCCCCCCN/C=C1\N=C(c2ccc[nH]2)C=C1OCC.Cl` please 391

Entry `CCCOC1=CC(c2ccc[nH]2)=N/C1=C\NC12CC3CC(CC(C3)C1)C2.Cl` please 2140

Entry `CCCCCCCCCCCCN/C=C1\N=C(c2ccc[nH]2)C=C1OC(C)C.Cl` please 103

Entry `CC(C)CN/C=C1\N=C(c2ccc[nH]2)C=C1OCc1ccccc1.Cl` please 182

Entry `CCCCCCCCCCCc1ccc(/C=C2\N=C(c3ccc[nH]3)C=C2OC(C)C)[nH]1.Cl` please 3240

Entry `CCCCCc1cc(/C=C2\N=C(c3ccc[nH]3)C=C2Oc2ccccc2)[nH]c1C.Cl` please 884

Entry `CC(C)OC1=CC(c2ccc[nH]2)=N/C1=C\NC12CC3CC(CC(C3)C1)C2.Cl` please 715

Entry `CC(C)CN/C=C1\N=C(c2ccc[nH]2)C=C1OC(C)C.Cl` please 201
